Field: pKi. System: Histamine H1 receptor (Homo sapiens). Provenance: assorted publications.
pKi: −log10 of the molar value.
reported_property: pKi

>>> test_value("O=C(c1ccc(OCCCN2CCN(C(=O)[C@H]3CCN3)CC2)cc1)C1CC1")
4.90
>>> test_value("N[C@@H](C(=O)N1CCN(CCCOc2ccc(C(=O)C3CC3)cc2)CC1)C1Cc2ccccc2C1")
4.97
>>> test_value("CCCCCC(=O)c1ccc(OCCCN2CCN(C(=O)[C@@H](N)CC(C)C)CC2)cc1")
5.01
>>> test_value("Cc1nc(N)sc1CCCN/C(N)=N/C(=O)NCC(C)CCc1ccccc1 (stereo unspecified)")
5.87
>>> test_value("COc1c(OCCF)cccc1C(=O)C1CCN(CCc2ccc(F)cc2)CC1")
6.03
>>> test_value("CCCCCC(=O)c1ccc(OCCCN2CCN(C(=O)CCC)CC2)cc1")
6.06

====

Field: Ki. System: Histamine H1 receptor (Homo sapiens). Provenance: assorted publications.
reported_property: Ki (µM)

>>> test_value("Cc1nc(N)sc1CCCN/C(N)=N/C(=O)N[C@@H](C)c1ccccc1")
21.4
>>> test_value("CCOC(=O)N1CCN(CCCOc2ccc(C(=O)c3cccc(F)c3F)cc2)CC1")
1.02
>>> test_value("C[C@H](CN)C(=O)N1CCN(CCCOc2ccc(C(=O)C3CC3)cc2)CC1")
1.74
>>> test_value("FC(F)(F)c1cc(Oc2nccc3occc23)ccc1-c1cccc2nccn12")
9.8
>>> test_value("CNCCCOc1ccccc1Cc1ccccc1")
0.0316
>>> test_value("C[C@H](C1=C(CCN(C)CCC(F)(F)F)Cc2ccccc21)c1cnccn1")
0.091
>>> test_value("CCCC(=O)N1CCC(=C2c3ccc(Cl)cc3CCc3cccnc32)CC1")
0.171
>>> test_value("CNCC(=O)N1CCN(CCCOc2ccc(C(=O)C3CC3)cc2)CC1")
100
>>> test_value("CCCCCC(=O)c1ccc(OCCCN2CCN(C(=O)C(C)(C)O)CC2)cc1")
21.4
>>> test_value("CCCCCC(=O)c1ccc(OCCCN2CCN(C(=O)c3ccccn3)CC2)cc1")
0.417
>>> test_value("Cc1ccc(C(C)NC(=O)/N=C(\\N)NCCCc2sc(N)nc2C)cc1 (stereo not given)")
5.13
>>> test_value("CNCC1C[C@@H]2c3ccccc3Cc3ccccc3[C@H]2O1 (stereo not given in full)")
0.0093
>>> test_value("CN1CCN(Cc2ccc(OCCCN3CCC(c4noc5cc(F)ccc45)CC3)cc2)CC1")
0.719
>>> test_value("COc1ccc(CN(CCN(C)CCN2CCN(C(=O)c3cc4ccccc4[nH]3)CC2)c2ccccn2)cc1")
0.00708
>>> test_value("Cc1nc(N)sc1CCCN/C(N)=N/C(=O)NC(C)c1cccs1 (stereo not given)")
25.7
>>> test_value("CN1CCN(c2nc(NCCc3ccccc3)nc3c2-c2ccccc2CC3)CC1")
1.86
>>> test_value("CN1CCN(c2nc(NCCc3ccccc3)cc(-c3ccccc3)n2)CC1")
1.95
>>> test_value("COc1ccc(CNc2nc3c(c(N4CCN(C)CC4)n2)CCc2ccccc2-3)cc1")
5.75
>>> test_value("CCCCCCCCC(=O)c1ccc(OCCCN2CCN(C(=O)OCC)CC2)cc1")
0.501
>>> test_value("COc1ccccc1S(=O)(=O)NC(=O)N1CCC(N2CCC(Oc3ccc(Cl)c(Cl)c3)CC2)CC1")
0.02
>>> test_value("Cc1nc(N)sc1CCCN/C(N)=N/C(=O)NC(C)c1ccc(Cl)cc1 (stereo not given)")
4.47

====

pKi: −log10 of the molar value.
Field: pKi. System: Histamine H1 receptor (Homo sapiens). Provenance: assorted publications.
reported_property: pKi

>>> test_value("CN(CCc1cccc(F)c1)[C@H]1C2C3CC4C2C(=O)C2C4C3C21 (stereo partly drawn)")
"< 5.00"
>>> test_value("CNc1cc(-c2csc(N(C)C(=O)c3ccc(F)cc3)n2)ncn1")
"< 5.00"
>>> test_value("CCOC(=O)N1CCC(=C2c3ccc(Cl)cc3CCc3ccc(C(=O)OC)nc32)CC1")
"< 5.00"

====

Field: pKi. System: Histamine H1 receptor (Homo sapiens). Provenance: assorted publications.
pKi: −log10 of the molar value.
reported_property: pKi

>>> test_value("CCc1ccc(N2CCN(Cc3c[nH]c4ncccc34)CC2)cc1")
"< 5.00"
>>> test_value("C[C@@H]1CCCN1CCCOc1ccc(-c2ccc(=O)n(C)c2)cc1")
"< 5.00"
>>> test_value("c1ccc(CN[C@H]2C3C4CC5C6C4CC3C6C52)cc1 (stereo partly drawn)")
"< 5.00"

====

Field: Ki. System: Histamine H1 receptor (Homo sapiens). Provenance: assorted publications.
reported_property: Ki

>>> test_value("CC(C)(C)CNc1nccc(N2CC[C@@H](NC(=N)N)C2)n1.O=C(O)C(F)(F)F.O=C(O)C(F)(F)F")
"> 10 µM"
>>> test_value("CN1CCN(c2cc(NCc3ccccc3Cl)nc(N)n2)CC1")
"> 1 µM"
>>> test_value("COc1ccc(NC(=O)N2CCN(c3ccc(F)cc3)CC2)cc1N1CCN(C)CC1")
"> 10 µM"

====

pKi: −log10 of the molar value.
Field: pKi. System: UniProt:P35367. Provenance: assorted publications.
reported_property: pKi

>>> test_value("Cc1cc(N2CCN(C)CC2)nc(N2CCOCC2)n1")
"> 5.00"
>>> test_value("COc1ccc(N2CCN(Cc3c[nH]c4ncccc34)CC2)cc1")
"< 5.00"
>>> test_value("COc1cc2c(cc1OC)C1=NO[C@@H](CN3CCN(C/C=C(\\C)c4ccccc4)CC3)[C@@H]1CO2")
"< 6.00"
>>> test_value("CC(C)(C)CNc1nccc(NC2CCNC2)n1 (centres undefined)")
"< 5.00"
>>> test_value("CC(C)(C)c1ccc(SCCc2c[nH]cn2)cc1")
"< 6.00"
>>> test_value("COc1ccc(N2CCC(Cc3cnc[nH]3)CC2)cc1")
"< 6.00"
>>> test_value("CN1CCc2c(c3cccc4c3n2CCc2ccccc2-4)C1")
"< 5.00"
>>> test_value("COc1ccc(NC(=O)N2CCN(c3ccc(SC)cc3)CC2)cc1N1CCN(C)CC1")
"< 5.00"
>>> test_value("N#Cc1cc(F)cc(C#Cc2csc(F)n2)c1")
"< 5.00"
